# key: entry, value: EC50
Biological target: mTGR5 (Mus musculus, UniProt Q80SS6)
Sequence (Q80SS6 1-329): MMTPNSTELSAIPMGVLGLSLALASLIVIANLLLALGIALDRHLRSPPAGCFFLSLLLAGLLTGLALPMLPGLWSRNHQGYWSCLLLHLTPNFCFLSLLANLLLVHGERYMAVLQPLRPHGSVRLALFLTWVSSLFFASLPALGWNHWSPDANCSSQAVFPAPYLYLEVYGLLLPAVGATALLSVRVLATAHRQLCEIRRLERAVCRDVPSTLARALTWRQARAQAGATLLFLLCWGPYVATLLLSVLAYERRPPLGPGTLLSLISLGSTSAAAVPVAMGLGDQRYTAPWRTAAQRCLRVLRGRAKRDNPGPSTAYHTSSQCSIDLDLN
Experiment: TGR5/CRE Luciferase Assay (mTGR5)
Details: HEK 293 cells co-transfected with pCMV AC6-TGR5m and pCRE TA-Luciferase; overnight incubation
# number only, unit nM dropped from output

Ask: Fill in: EC50 of COCCN1C(=O)CC(c2ccc(Cl)cc2)C(C(=O)OCc2cccc(C(=O)OC)c2)=C1C (stereo not shown) is ___
Result: 600

Next:
Ask: Fill in: EC50 of CC1=C(C(=O)OCc2ccc(OCCCCS(=O)(=O)O)cc2)[C@H](c2ccc(Cl)cc2)CC(=O)N1C[C@H]1CCCO1 is ___
Result: 9

Ask: Fill in: EC50 of COCCN1C=C(C(=O)OCc2ccccc2)C(c2ccc(Cl)cc2)CC1=O (stereo not shown) is ___
Result: 1100

Ask: Fill in: EC50 of COCCN1C(=O)CC(c2ccncc2)C(C(=O)OCc2ccccc2OC)=C1C (stereo not shown) is ___
Result: 4900

---

Target: mTGR5 (Mus musculus, UniProt Q80SS6)
Assay: TGR5/CRE Luciferase Assay (mTGR5)
Settings: HEK 293 cells co-transfected with pCMV AC6-TGR5m and pCRE TA-Luciferase; overnight incubation
Procedure: TGR5/CRE Luciferase Assay In the following Tables TGR5 activation by compounds of the invention and subsequent increase in intracellular cAMP were evaluated using a luciferase reporter gene assay. […] Luminescence was read with a Mithras plate reader (Berthold) or a Victor3™ V1420 (Perkin Elmer). […]
# key: entry, value: log10 of EC50
# values: log10(EC50), units nM

Ask: Fill in: log10 of EC50 of COCCN1C(=O)CC(c2ccc(Cl)cc2)C(C(=O)OCc2ccccc2C(F)(F)F)=C1C (centres unmarked) is ___
Result: 3.11

Next:
Ask: Fill in: log10 of EC50 of COCCN1C(=O)CC(c2ccc(Cl)cc2)C(C(=O)OCc2ccc(C(F)(F)F)cc2)=C1C (centres unmarked) is ___
Result: 2.48

Ask: Fill in: log10 of EC50 of COCCN1C(=O)CC(c2ccc(Cl)cc2)C(C(=O)OCc2ccccc2C#N)=C1C (centres unmarked) is ___
Result: 2.90

Ask: Fill in: log10 of EC50 of COc1ccccc1COC(=O)C1=C(C)N(C[C@H]2CCCO2)C(=O)C[C@H]1c1ccc(Cl)c(Cl)c1 (racemic) is ___
Result: 1.85

Ask: Fill in: log10 of EC50 of COCCN1C(=O)CC(c2ccc(Cl)cc2)C(C(=O)OCc2ccc(Cl)cc2)=C1C (centres unmarked) is ___
Result: 2.48

Ask: Fill in: log10 of EC50 of COCCN1C(=O)CC(c2ccc(Cl)cc2Cl)C(C(=O)OCc2ccccc2OC)=C1C (centres unmarked) is ___
Result: 2.95

Ask: Fill in: log10 of EC50 of COCCN1C(=O)CC(c2ccc(Cl)cc2)C(C(=O)OCc2cccc(F)c2)=C1C (centres unmarked) is ___
Result: 2.85

Ask: Fill in: log10 of EC50 of CC1=C(C(=O)OCc2ccccc2)C(c2ccc(Cl)cc2)CC(=O)N1CC#N (centres unmarked) is ___
Result: 3.30
